Assay: self-splicing fitness, log relative to wild type (ln ratio); higher = more splicing; Tetrahymena group I intron in knt gene, E. coli kanamycin selection, DiMSum; sequences stand for … in CUCUCU…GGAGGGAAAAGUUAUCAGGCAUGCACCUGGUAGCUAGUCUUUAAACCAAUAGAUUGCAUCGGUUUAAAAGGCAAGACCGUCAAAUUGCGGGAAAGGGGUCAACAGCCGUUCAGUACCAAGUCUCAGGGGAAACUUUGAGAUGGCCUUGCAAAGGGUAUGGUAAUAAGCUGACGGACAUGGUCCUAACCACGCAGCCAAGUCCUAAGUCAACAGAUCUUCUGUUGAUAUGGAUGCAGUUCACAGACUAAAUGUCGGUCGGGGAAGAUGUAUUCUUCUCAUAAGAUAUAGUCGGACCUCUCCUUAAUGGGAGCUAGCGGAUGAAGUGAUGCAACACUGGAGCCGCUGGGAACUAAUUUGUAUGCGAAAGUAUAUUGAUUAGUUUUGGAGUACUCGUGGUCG;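 further: selection with 25 µg/mL kanamycin versus none on LB agar overnight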
Conditions: 37 °C
Rule: self-splicing fitness (ln) under -2 gives 0 (no), otherwise 1 (yes).

seq.string: GGUAAGCAAUAUUACGGAUC
class.assignment: 1 (yes)
--
seq.string: AUGUAGCAAUAUUACGUUGA
class.assignment: 1 (yes)
--
seq.string: GGGUAGCAAUAUUACGUAUC
class.assignment: 1 (yes)
--
seq.string: CGGCAGCAAUAUUACGUGCA
class.assignment: 1 (yes)
--
seq.string: GUCUAGCAAUAUUACGAUGC
class.assignment: 1 (yes)

Does self-splicing fitness (ln) meet or surpass -2 for `UAUCAGCAAUAUUACGUCCA` ?
1 (yes)

Does self-splicing fitness (ln) meet or surpass -2 for `GAGAAGCAAUAUUACGGGUG` ?
1 (yes)

Does self-splicing fitness (ln) meet or surpass -2 for `UACUAGCAAUAUUACGGGCA` ?
1 (yes)
